organism: Homo sapiens; test: Selectivity for human ERbeta over human ERalpha
recorded.metric: Ratio IC50
One number for each entry.

# annotated cases, reported Ratio IC50 shown
# compound, measured.value
measured = [
    ("CCN1CC(c2ccc(O)cc2)Cc2ccc(O)cc21 (stereo not given)", 17),
    ("CS(=O)(=O)N1CC(c2ccc(O)cc2)Cc2ccc(O)cc21 (stereo not given)", 61.5),
    ("Oc1ccc(C2Cc3ccc(O)cc3N(CC3CC3)C2)cc1 (stereo not given)", 7.1),
    ("CN1CC(c2ccc(O)cc2)Cc2ccc(O)cc21 (stereo not given)", 13.3),
]

# input for lookup
The recorded Ratio IC50 for CCCN1CC(c2ccc(O)cc2)Cc2ccc(O)cc21 (stereo not given) is 17.9

====

IC50 values recorded for Estrogen receptor beta (Homo sapiens)
Answers are plain numbers, in nM.

# annotated cases, reported IC50 shown
# compound, assay.system, IC50, nM
records = [
    ("CCCN1CC(c2ccc(O)cc2)Cc2ccc(O)cc21 (stereo unspecified)", "Estrogen receptor beta (Homo sapiens)", 140),
    ("Oc1ccc(C2Cc3ccc(O)cc3NC2=S)cc1 (stereo unspecified)", "Estrogen receptor beta (Homo sapiens)", 4900),
    ("CN1CC(c2ccc(O)cc2)Cc2ccc(O)cc21 (stereo unspecified)", "Estrogen receptor beta (Homo sapiens)", 220),
]

Would you mind giving IC50 for every compound in the list below?
1. CCN1CC(c2ccc(O)cc2)Cc2ccc(O)cc21 (stereo unspecified)
2. Oc1ccc(C2Cc3ccc(O)cc3N(CC3CC3)C2)cc1 (stereo unspecified)
3. CS(=O)(=O)N1CC(c2ccc(O)cc2)Cc2ccc(O)cc21 (stereo unspecified)

1: 83; 2: 230; 3: 520

====

test system: Mus musculus; assay: Effect on uterine wet weight in ovariectomized kunming mouse at 4 umol/kg, sc qd for 4 weeks; assay type: functional
Give Activity for every item shown.
One number for each entry, in mg.

# annotated cases, reported Activity shown
# molecule, Activity [mg]
rows = [
    ("Oc1ccc(C2Cc3ccc(O)cc3N(CC3CC3)C2)cc1 (stereo not given)", 30.8),
    ("CCCN1CC(c2ccc(O)cc2)Cc2ccc(O)cc21 (stereo not given)", 28.3),
    ("Oc1ccc(-c2cnc3cc(O)ccc3c2)cc1", 33.1),
    ("O=C(c1ccc(OCCN2CCCCC2)cc1)c1c(-c2ccc(O)cc2)sc2cc(O)ccc12", 69.5),
    ("CCN1CC(c2ccc(O)cc2)Cc2ccc(O)cc21 (stereo not given)", 31.7),
]

Would you mind giving Activity for every molecule in the list below?
1. CN1CC(c2ccc(O)cc2)Cc2ccc(O)cc21 (stereo not given)
2. CC(=O)N1CC(c2ccc(O)cc2)Cc2ccc(O)cc21 (stereo not given)
3. O=CN1CC(c2ccc(O)cc2)Cc2ccc(O)cc21 (stereo not given)
4. Oc1ccc(C2Cc3ccc(O)cc3NC2=S)cc1 (stereo not given)
5. CS(=O)(=O)N1CC(c2ccc(O)cc2)Cc2ccc(O)cc21 (stereo not given)

31.8
29.1
36.4
38.7
32.5

====

target: Estrogen receptor beta (Homo sapiens); assay: Agonist activity at human ERbeta expressed in yeast AH109 by yeast two hybrid assay
Sequence (Q92731 whole entry): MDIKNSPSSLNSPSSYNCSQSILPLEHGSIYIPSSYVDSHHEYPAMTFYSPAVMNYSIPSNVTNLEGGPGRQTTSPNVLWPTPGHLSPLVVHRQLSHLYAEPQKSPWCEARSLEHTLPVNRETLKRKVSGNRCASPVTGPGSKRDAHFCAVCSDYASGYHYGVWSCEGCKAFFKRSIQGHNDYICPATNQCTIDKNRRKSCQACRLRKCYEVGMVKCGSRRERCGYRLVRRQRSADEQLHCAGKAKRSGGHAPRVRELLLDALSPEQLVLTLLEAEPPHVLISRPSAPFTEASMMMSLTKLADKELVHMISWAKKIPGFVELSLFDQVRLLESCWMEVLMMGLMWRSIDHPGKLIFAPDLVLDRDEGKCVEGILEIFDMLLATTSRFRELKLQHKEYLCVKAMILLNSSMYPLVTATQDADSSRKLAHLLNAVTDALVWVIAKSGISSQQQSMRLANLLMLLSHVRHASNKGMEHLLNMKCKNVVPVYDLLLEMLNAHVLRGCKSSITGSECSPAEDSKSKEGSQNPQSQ
recorded.metric: log10 EC50 (log10 of the value in µM)
Response schema: value (number) is log10 of EC50 in units of µM.

# annotated cases, reported log10 EC50 shown
# compound, log10 EC50
measured = [
    ("CCN1CC(c2ccc(O)cc2)Cc2ccc(O)cc21 (stereo unspecified)", -0.24),
    ("Oc1ccc(-c2cnc3cc(O)ccc3c2)cc1", 1.57),
    ("CCCN1CC(c2ccc(O)cc2)Cc2ccc(O)cc21 (stereo unspecified)", 0.68),
    ("CN1CC(c2ccc(O)cc2)Cc2ccc(O)cc21 (stereo unspecified)", -0.52),
    ("Oc1ccc(C2CNc3cc(O)ccc3C2)cc1 (stereo unspecified)", 0.99),
]

// assay Estrogen receptor beta (Homo sapiens), entry Oc1ccc(C2Cc3ccc(O)cc3N(CC3CC3)C2)cc1 (stereo unspecified) , log10 EC50 value = 0.84

====

biological target: Estrogen receptor (Homo sapiens); assay: Agonist activity at human ERalpha expressed in yeast AH109 by yeast two hybrid assay
Sequence (P03372 whole entry): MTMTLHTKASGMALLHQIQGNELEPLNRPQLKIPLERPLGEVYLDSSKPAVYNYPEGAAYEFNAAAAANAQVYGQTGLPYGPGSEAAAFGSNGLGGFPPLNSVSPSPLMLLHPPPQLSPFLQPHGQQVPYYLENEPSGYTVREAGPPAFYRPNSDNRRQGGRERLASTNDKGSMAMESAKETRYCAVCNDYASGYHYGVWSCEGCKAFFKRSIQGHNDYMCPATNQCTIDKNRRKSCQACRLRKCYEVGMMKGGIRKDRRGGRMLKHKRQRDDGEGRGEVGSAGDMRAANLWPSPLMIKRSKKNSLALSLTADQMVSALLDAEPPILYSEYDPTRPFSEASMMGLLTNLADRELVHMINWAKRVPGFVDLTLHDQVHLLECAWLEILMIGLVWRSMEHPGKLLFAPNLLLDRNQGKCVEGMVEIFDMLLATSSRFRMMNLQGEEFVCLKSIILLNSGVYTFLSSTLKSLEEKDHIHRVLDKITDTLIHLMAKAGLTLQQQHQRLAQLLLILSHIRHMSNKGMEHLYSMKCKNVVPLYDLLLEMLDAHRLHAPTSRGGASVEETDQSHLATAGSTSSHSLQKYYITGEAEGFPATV
Give pEC50 for every item shown.
Give bare numbers, as −log10 of the molar value.

# molecule, recorded.metric, measured.value
data = [
    ("CCN1CC(c2ccc(O)cc2)Cc2ccc(O)cc21 (centres undefined)", "pEC50", 4.61),
]

# input for lookup
// assay Estrogen receptor (Homo sapiens), entry CN1CC(c2ccc(O)cc2)Cc2ccc(O)cc21 (centres undefined) , pEC50 value = 4.82

====

Give pIC50 for every item shown.
biological target: UniProt:P03372
One number for each entry, as −log10 of the molar value.

# annotated cases, reported pIC50 shown
# compound, assay.system, pIC50
rows = [
    ("CN1CC(c2ccc(O)cc2)Cc2ccc(O)cc21 (stereo not given)", "UniProt:P03372", 5.53),
    ("Oc1ccc(C2Cc3ccc(O)cc3N(CC3CC3)C2)cc1 (stereo not given)", "UniProt:P03372", 5.79),
    ("CS(=O)(=O)N1CC(c2ccc(O)cc2)Cc2ccc(O)cc21 (stereo not given)", "UniProt:P03372", 4.49),
    ("CCN1CC(c2ccc(O)cc2)Cc2ccc(O)cc21 (stereo not given)", "UniProt:P03372", 5.85),
]

The recorded pIC50 for CCCN1CC(c2ccc(O)cc2)Cc2ccc(O)cc21 (stereo not given) is 5.61

====

target: Estrogen receptor (Homo sapiens); assay: Antagonist activity at ERalpha expressed in yeast AH109 assessed as inhibition of 17-beta-estradiol induced alpha-galactosidase activity; type: functional
recorded.metric: IC50 (µM)
Numbers only, in µM.

# compound, IC50 (µM)
data = [
    ("Oc1ccc(C2Cc3ccc(O)cc3N(CC3CC3)C2)cc1 (configuration not stated)", 5.57),
]

# input for lookup
The recorded IC50 for CCCN1CC(c2ccc(O)cc2)Cc2ccc(O)cc21 (configuration not stated) is 2.65
